Data origin, for the record: patent US9562053B2

Biological target: Human GPR120 short form (Homo sapiens)
Construct: expressed in transfected cells
Sequence (Q5NUL3 whole entry): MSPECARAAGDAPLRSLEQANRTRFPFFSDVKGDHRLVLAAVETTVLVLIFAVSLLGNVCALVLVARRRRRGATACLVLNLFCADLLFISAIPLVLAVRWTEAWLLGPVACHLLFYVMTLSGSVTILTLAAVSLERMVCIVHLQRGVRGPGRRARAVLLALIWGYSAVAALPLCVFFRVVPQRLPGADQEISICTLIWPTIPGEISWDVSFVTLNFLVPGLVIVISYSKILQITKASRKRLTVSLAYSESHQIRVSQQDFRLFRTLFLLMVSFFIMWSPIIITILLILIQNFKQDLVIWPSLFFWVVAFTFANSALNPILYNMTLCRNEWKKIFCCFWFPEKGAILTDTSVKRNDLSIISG
Experiment: Human GPR120 in Calcium Flux Assay, Procedure Calcium A (2500 cells/well)
Format: cell-based
pEC50: −log10 of the molar value.
MEASUREMENT_NAME: pEC50

(I) Cc1c(CCC(=O)O)ccc(OCc2cc(F)cc3cc(C(C)C)oc23)c1C
(II) CCc1cc2cc(OC(F)(F)F)cc(COc3ccc(CCC(=O)O)c(C)c3C)c2o1
-- ask Between the entries labeled I and II , whose measured pEC50 is lower? To answer, give the label that identifies your chosen option.
-- reply I

(A) Cc1cc2c(COc3c(F)cc(CCCO)cc3F)cc(Cl)cc2s1
(B) Cc1c(CCC(=O)O)ccc(OCc2cc(F)cc3cc(CC(C)C)oc23)c1C
(C) COCc1cc2cc(F)cc(COc3ccc(CCC(=O)O)c(C)c3C)c2o1
(D) Cc1cc2c(F)c(OC(F)(F)F)c(F)c(COc3ccc(CCC(=O)O)c(C)c3C)c2o1
-- ask // smallest pEC50 at index 0, largest at the end # the answer lists labels in the order requested
-- reply A, B, C, D
